Attribute: surviving fraction
# Tested on: Hamster lung fibroblast V79 cells
# EXPERIMENT SUMMARY: Cytotoxic effects of compounds of formula (I) with horseradish peroxidase (HRP), clonogenic cell survival
# Type: cell-based
# CONDITION DESCRIPTION: 2 hours treatment, 100 μM IAA derivative together with HRP (1.2 μg/mL), mean ± standard error of three experiments unless n given, 0^a = all cells killed, 1^b = no detectable effect
# Procedure: Hamster lung fibroblast V79 cells were obtained from the European Tissue Culture Collection. […] Cells were prepared for toxicity measurements by counting and plating 200, 2000 or 20,000 cells/6 cm Petri dish in 3 mL EMEM in triplicate for each sample. […] The cells were washed and colonies counted. Cell survival was determined by calculating the ratio of colonies growing compared to untreated control cells. […]
Marks after values point to notes of the source that are not given here.

- QUERY SMILES: "O=C(O)Cc1c[nH]c2ccc(F)cc12"
  surviving fraction: "0^a"
- QUERY SMILES: "O=C(O)Cc1c[nH]c2cc(F)ccc12"
  surviving fraction: "0.00995 (n = 2)"
- QUERY SMILES: "O=C(O)Cc1c[nH]c2ccc(Cl)cc12"
  surviving fraction: "0.0027 ± 0.0022"
- QUERY SMILES: "O=C(O)Cc1c[nH]c2c(F)cccc12"
  surviving fraction: "0^a"
- QUERY SMILES: "O=C(O)Cc1c[nH]c2cc(Cl)ccc12"
  surviving fraction: "0^a"
- QUERY SMILES: "O=C(O)Cc1c[nH]c2cccc(F)c12"
  surviving fraction: "0.000085 ± 0.00007"
- QUERY SMILES: "O=C(O)Cc1c[nH]c2ccc(Br)cc12"
  surviving fraction: "0.00004 ± 0.00003"
- QUERY SMILES: "O=C(O)Cc1c[nH]c2c(Cl)cccc12"
  surviving fraction: "0.000042 (n = 1)"
- QUERY SMILES: "O=C(O)Cc1c[nH]c2cc(Br)ccc12"
  surviving fraction: "0^a"
